# system: UniProt P31639
# Sequence (P31639 1-672): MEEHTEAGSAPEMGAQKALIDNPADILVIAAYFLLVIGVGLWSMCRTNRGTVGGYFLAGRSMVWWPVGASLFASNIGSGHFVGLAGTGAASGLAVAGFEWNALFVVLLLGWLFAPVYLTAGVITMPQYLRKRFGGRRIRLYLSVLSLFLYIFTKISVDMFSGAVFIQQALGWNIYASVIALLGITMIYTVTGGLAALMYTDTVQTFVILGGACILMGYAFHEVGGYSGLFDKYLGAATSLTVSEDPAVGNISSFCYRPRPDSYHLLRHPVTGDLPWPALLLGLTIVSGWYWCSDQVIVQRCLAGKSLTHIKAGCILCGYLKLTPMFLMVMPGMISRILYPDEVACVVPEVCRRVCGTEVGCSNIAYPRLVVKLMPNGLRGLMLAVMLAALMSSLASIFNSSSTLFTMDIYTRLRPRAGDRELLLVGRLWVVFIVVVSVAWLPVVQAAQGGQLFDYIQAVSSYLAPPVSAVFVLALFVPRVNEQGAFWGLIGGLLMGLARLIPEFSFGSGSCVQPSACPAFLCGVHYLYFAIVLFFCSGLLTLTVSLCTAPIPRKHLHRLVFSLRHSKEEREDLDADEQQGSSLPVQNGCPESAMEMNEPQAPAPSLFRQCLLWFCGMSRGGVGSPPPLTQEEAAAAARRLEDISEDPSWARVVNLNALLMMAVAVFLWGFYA
# assay.details: Cell-based assay for sodium-dependent glucose transport (14C-AMG uptake), CHOK-SGLT2
# condition: CHO-K1 cells stably expressing human SGLT2; Na-dependent 14C-AMG uptake
pIC50: −log10 of the molar value.
property.name: pIC50

CSc1ccc(Cc2c[nH]c3cccc(O[C@@H]4O[C@H](CO)[C@@H](O)[C@H](O)[C@H]4O)c23)cc1	7.59
COc1ccc(CCc2c[nH]c3cc(C)cc(O[C@@H]4O[C@H](CO)[C@@H](O)[C@H](O)[C@H]4O)c23)cc1	6.42
CCN(CC)C(=O)n1cc(Cc2ccc(OC)cc2)c2c(O[C@@H]3O[C@H](CO)[C@@H](O)[C@H](O)[C@H]3O)cccc21	5.84
COc1ccc(CCc2c[nH]c3cccc(O[C@@H]4O[C@H](CO)[C@@H](O)[C@H](O)[C@H]4O)c23)cc1	6.85

P = CC(=O)OC[C@H]1O[C@@H](Oc2cccc3[nH]cc(CCc4ccc5c(c4)CCO5)c23)[C@H](O)[C@@H](O)[C@@H]1O
Q = OC[C@H]1O[C@@H](Oc2cccc3[nH]cc(Cc4ccc(Cl)cc4)c23)[C@H](O)[C@@H](O)[C@@H]1O
R = CCc1ccc(Cc2cn(C(C)C)c3cccc(O[C@@H]4O[C@H](CO)[C@@H](O)[C@H](O)[C@H]4O)c23)cc1
Ask: Thanks in advance: please rank these 3 entries by pIC50, highest to lowest. // rank by listing labels in the order requested
Reply: P, Q, R

The values you see were collected from patent US7820630B2.
